System: A549 NSCLC
assay comment: NCI tumour cell line growth inhibition, 48 h
Recorded TGI values for a group of compounds are listed next.

### Prompt Send back A549 NSCLC TGI of COc1cccc(C2c3cc4c(cc3OC(NNC(N)=O)C2C)OCO4)c1O (centres undefined) only.
### Response > 39.8 µM

### Prompt Send back A549 NSCLC TGI of O=C(CCc1ccc(O)c(O)c1)NCCc1ccccc1 only.
### Response > 100 µM

Next:
### Prompt Send back A549 NSCLC TGI of CC(=O)c1cc(CC2Cc3cc4c(cc3C2=O)CCC4)cc2c1CCC2 (centres undefined) only.
### Response > 100 µM

### Prompt Send back A549 NSCLC TGI of CC(=O)OC1CC2C(C)(C)CCC[C@]2(C)C2=C1C(O)=C(C(C)C)C(=O)C2=O (some centres undefined) only.
### Response 3.01 µM

### Prompt Send back A549 NSCLC TGI of CC1(C)CCCC2CC2CCC(C)(C)C1=O (centres undefined) only.
### Response > 100 µM

====

Tested on: BT-549 breast
assay comment: NCI tumour cell line growth inhibition, 48 h
measure: TGI

Example entries and their recorded answers appear below.
### Prompt Send back BT-549 breast TGI of COc1ccc(N=C(CS(=O)c2ccc(C)cc2)C(F)(F)F)cc1 (configuration not stated) only.
### Response > 100 µM

### Prompt Send back BT-549 breast TGI of NC(CP(=O)(O)O)C(=O)O (configuration not stated) only.
### Response > 100 µM

Next:
### Prompt Send back BT-549 breast TGI of CC(=O)c1cc2c(s1)C(=O)c1ccsc1C2=O only.
### Response 0.356 µM

### Prompt Send back BT-549 breast TGI of Cc1n[nH]c(=O)n1Nc1ccccc1 only.
### Response > 100 µM

### Prompt Send back BT-549 breast TGI of CCOc1cc(/C=N/c2nc3cc4sc(/N=C/c5ccc(O)c(OCC)c5)nc4cc3s2)ccc1O only.
### Response > 100 µM

====

System: HT29 colon
assay comment: NCI tumour cell line growth inhibition, 48 h
Recorded TGI values for a group of compounds are listed next.

### Prompt Kindly indicate its recorded TGI. Item: O=C(NC(=O)c1ccccc1)OC(c1ccccc1)C1CO1 (stereo unspecified)
### Response > 100 µM

### Prompt Kindly indicate its recorded TGI. Item: N#CC(C(=O)/C(=N/NC(=O)c1ccccc1O)C(C#N)c1ccc(Br)cc1)c1ccc(Br)cc1 (stereo unspecified)
### Response 33.9 µM

### Prompt Kindly indicate its recorded TGI. Item: COc1cc(-c2cc(-c3cccs3)c(C#N)c(N3CCOCC3)n2)cc(OC)c1OC
### Response > 100 µM

### Prompt Kindly indicate its recorded TGI. Item: O=C(NC1CCN(Cc2ccccc2)CC1)c1cccc(I)c1
### Response 43.7 µM

### Prompt Kindly indicate its recorded TGI. Item: O=S(=O)(O)c1ccc(Nc2ccnc3ccccc23)cc1
### Response > 100 µM

Next:
### Prompt Kindly indicate its recorded TGI. Item: CC(C)(C)CNCCCNc1ccc(Cl)cc1
### Response 56.5 µM

### Prompt Kindly indicate its recorded TGI. Item: Cc1n[nH]c(=O)n1Nc1ccccc1
### Response > 100 µM

### Prompt Kindly indicate its recorded TGI. Item: CCCCCCc1cc2cc(C(=O)NCc3ccccc3)c(=N)oc2cc1O
### Response > 100 µM

### Prompt Kindly indicate its recorded TGI. Item: O=c1c2cccc(F)c2sc2c(NCCCNCCO)nc3ccccc3c12
### Response 3.25 µM

### Prompt Kindly indicate its recorded TGI. Item: CC[O-].CC[O-].COc1ccc(C(=O)[CH-]C(C)=O)cc1OC.COc1ccc(C(=O)[CH-]C(C)=O)cc1OC.[Ti+4]
### Response > 100 µM

### Prompt Kindly indicate its recorded TGI. Item: CCOC(CN(C)C(=O)Nc1ccc(Cl)c(Cl)c1)OCC
### Response > 10 µM

Values were extracted from PubChem BioAssay (NCI).
